species: Rattus norvegicus; assay: Open TG-GATES - Regimen: Daily Repeat; assay type: toxicity, organism-based, Sprague-Dawley; parameters: regimen Daily Repeat, gender Male, age 6 weeks; details: in vivo, po, 0 mg/kg, 72 h, tissue Blood, route gavage, dose level Control, time 3 day
Mark fulfilled only when Ret stays strictly below 6%. Values equal to the cut-off are not fulfilled.

Use the examples below as a reference point.
>>> print(df.to_string())
                    smiles_string  assigned_category
0     Cc1cccc(Nc2ccccc2C(=O)O)c1C          fulfilled
1  O=C(O)Cc1ccccc1Nc1c(Cl)cccc1Cl          fulfilled
2    Clc1c(Cl)c(Cl)c(Cl)c(Cl)c1Cl      not fulfilled

Next, consider the following compound.
Q) Given `CN(C)[C@@H]1C(O)=C(C(N)=O)C(=O)[C@@]2(O)C(O)=C3C(=O)c4c(O)cccc4[C@@](C)(O)[C@H]3C[C@@H]12` , is recorded Ret strictly lower than 6%?
A) not fulfilled

From: ChEMBL document CHEMBL3885861
